In this section we review reported hCD71:HSA values for a set of binders.
target: T1, human CD71 extracellular domain (CD71-ECD) (human, UniProt P02786 89-760); assay: primary ELISA, RLU ratio to HSA
T1 construct: also called hCD71; human CD71-ECD
T1 sequence (P02786 89-760): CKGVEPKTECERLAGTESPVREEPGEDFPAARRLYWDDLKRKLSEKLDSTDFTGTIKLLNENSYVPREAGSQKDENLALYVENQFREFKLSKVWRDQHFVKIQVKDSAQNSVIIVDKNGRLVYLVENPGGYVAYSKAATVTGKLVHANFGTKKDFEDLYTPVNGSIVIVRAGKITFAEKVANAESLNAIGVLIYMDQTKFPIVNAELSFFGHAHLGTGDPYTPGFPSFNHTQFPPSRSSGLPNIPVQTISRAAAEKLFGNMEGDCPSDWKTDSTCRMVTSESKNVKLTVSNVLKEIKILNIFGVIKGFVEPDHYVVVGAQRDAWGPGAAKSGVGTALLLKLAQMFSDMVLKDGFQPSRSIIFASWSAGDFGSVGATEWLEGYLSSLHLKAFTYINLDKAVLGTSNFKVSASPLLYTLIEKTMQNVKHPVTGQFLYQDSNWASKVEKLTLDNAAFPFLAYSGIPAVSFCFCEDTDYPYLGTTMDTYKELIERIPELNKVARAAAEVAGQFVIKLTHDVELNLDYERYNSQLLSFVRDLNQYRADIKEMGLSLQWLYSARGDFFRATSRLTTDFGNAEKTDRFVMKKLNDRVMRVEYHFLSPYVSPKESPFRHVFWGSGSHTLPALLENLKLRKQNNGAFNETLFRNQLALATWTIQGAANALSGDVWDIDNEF
API note: the answer field is a bare number with no unit suffix.

{"binder": "CD71-binding FN3 domain SEQ ID NO: 328 (designed binder) MSLPAPKNLVVSRVTEDSARLSWTAPDAAFDSFEIGYFGNLYLGEAIVLTVPGSERSYDLTGLKPGTEYWVQIGGVKGGNWSAPLSAIFTT", "test_value": 25}

Now look at this entry.
Supply recorded hCD71:HSA for CD71-binding FN3 domain SEQ ID NO: 298 (designed binder) MSLPAPKNLVVSRVTEDSARLSWTAPDAAFDSFEIGYFENLYLGEAIVLTVPGSERSYDLTGLKPGTEYWVQIGGVKGDNWSAPLSAIFTT here. 287
